ASSAY_SYSTEM: DRB1*0301 (DR3) (Homo sapiens, UniProt P01903+P01911, A100K/A102G/A103R/A169T/F55Y/I96L/K41T/L162R/M171V/P40S/Q125H/Q178H/Q39Y/R42S/S66N/T106N/T262R/W38E/Y61H)
MEASUREMENT_PROTOCOL: HLA class II peptide binding assay, purified HLA
EXPERIMENTAL_CONTEXT: Table XIX, DR supermotif peptides; unit not given
Where no end group is shown, it is not given here.
Exercise: state measured DR3 binding data for each of the sequences provided.
Just the number, please, no unit attached.

IN: Form field: reported DR3 binding data of `DLTLGLEPSEEEAPR`
OUT: −0.0025

IN: Note, next up: `FVVIQNEDLGPASPL`
OUT: −0.0025

IN: Note, next up: `AIKVLRENTSPKANK`
OUT: 0.0075

IN: One more sequence: `ARLLDIDETEYHADG`
OUT: 0.3100

IN: What do we get for `ASPLTSHSAVVGIL` ?
OUT: 0.0010

###

ASSAY_SYSTEM: DRB1*0401 (DR4w4) (Homo sapiens, UniProt P01903+P01911, A100K/A169T/F76Y/I96L/K127E/L162R/M171V/N62H/P40V/Q125Y/R42H/S133A/S149N/S66Y/V115G/V209L/W38E)
MEASUREMENT_PROTOCOL: HLA class II peptide binding assay, purified HLA
EXPERIMENTAL_CONTEXT: Table XIX, DR supermotif peptides; unit not given
Where no end group is shown, it is not given here.
MEASURED_QUANTITY: DR4w4 binding data
API doc: respond with a numeric literal and nothing else, no unit.

IN: Find the recorded DR4w4 binding data belonging to `VVGILLVVVLGVVFG` and report it.
OUT: −0.0025

IN: `PSTFKGTPTAENPEY` ?
OUT: −0.0032

IN: Entry to check: `LLVVVLGVVFGILIK`
OUT: −0.0025

IN: Also need `DMKLRLPASPETHLD` , thanks.
OUT: −0.0025

IN: Same again, this time with `ELELRKVKVLGSGAF`
OUT: 0.0350

IN: Input `LTSHSAVVGILLVV`
OUT: −0.0025

IN: Repeat for the following sequence: `ASPLTSHSAVVGIL`
OUT: −0.0025

###

ASSAY_SYSTEM: DRB5*0101 (DR2w2β2) (Homo sapiens, UniProt P01903+Q30154)
MEASUREMENT_PROTOCOL: HLA class II peptide binding assay, purified HLA
EXPERIMENTAL_CONTEXT: Table XIX, DR supermotif peptides; unit not given
For each entry below, report its DR2w2B2 binding data value.

IN: // lookup DR2w2B2 binding data for `CC[C@H](C)[C@H](NC(=O)[C@H](CCCCN)NC(=O)[C@H](CCCCN)NC(=O)[C@@H](N)CS)C(=O)N[C@@H](Cc1ccccc1)C(=O)NCC(=O)N[C@@H](CO)C(=O)N[C@@H](CC(C)C)C(=O)N[C@@H](C)C(=O)N[C@@H](Cc1ccccc1)C(=O)N[C@@H](CC(C)C)C(=O)N1CCC[C@H]1C(=O)N[C@@H](CCC(=O)O)C(=O)N[C@@H](CO)C(=O)N[C@@H](Cc1ccccc1)C(=O)O`
OUT: 0.0016

IN: Same read-out for `CC[C@H](C)[C@H](NC(=O)[C@H](CO)NC(=O)[C@H](CCC(=O)O)NC(=O)[C@H](CC(C)C)NC(=O)[C@H](C)NC(=O)[C@H](CCSC)NC(=O)[C@H](Cc1c[nH]c2ccccc12)NC(=O)[C@H](CCCCN)NC(=O)[C@@H](NC(=O)[C@@H]1CCCN1C(=O)[C@@H](NC(=O)[C@@H](N)CCCCN)C(C)C)[C@@H](C)CC)C(=O)N[C@@H](CC(C)C)C(=O)N[C@@H](CCCNC(=N)N)C(=O)N[C@@H](CCCNC(=N)N)C(=O)O` ?
OUT: 2.1000

IN: Another compound to look at: `CC[C@H](C)[C@H](NC(=O)CNC(=O)[C@H](Cc1ccccc1)NC(=O)[C@@H](NC(=O)[C@@H](NC(=O)CNC(=O)[C@H](CC(C)C)NC(=O)[C@@H](N)C(C)C)C(C)C)C(C)C)C(=O)N[C@@H](CC(C)C)C(=O)N[C@H](C(=O)N[C@@H](CCCCN)C(=O)N[C@@H](CCCNC(=N)N)C(=O)N[C@@H](CCCNC(=N)N)C(=O)N[C@@H](CCC(N)=O)C(=O)N[C@@H](CCC(N)=O)C(=O)O)[C@@H](C)CC`
OUT: 0.0620

IN: Similarly, `CC[C@H](C)[C@H](NC(=O)[C@H](CCSC)NC(=O)[C@H](Cc1c[nH]c2ccccc12)NC(=O)[C@H](CS)NC(=O)[C@H](CCCCN)NC(=O)[C@@H](NC(=O)[C@H](CCSC)NC(=O)[C@@H](NC(=O)[C@H](CCSC)NC(=O)[C@H](Cc1ccc(O)cc1)NC(=O)[C@@H](NC(=O)[C@@H](N)CC(=O)O)C(C)C)[C@@H](C)CC)C(C)C)C(=O)N[C@@H](CC(=O)O)C(=O)N[C@@H](CO)C(=O)N[C@@H](CCC(=O)O)C(=O)O` ?
OUT: 0.0042

IN: What do you have for `CC[C@H](C)[C@H](NC(=O)[C@H](CCSC)NC(=O)[C@H](Cc1ccc(O)cc1)NC(=O)[C@@H](NC(=O)[C@H](CC(=O)O)NC(=O)[C@@H](NC(=O)[C@@H](NC(=O)[C@H](CS)NC(=O)[C@@H](NC(=O)[C@@H]1CCCN1C(=O)[C@@H]1CCCN1C(=O)[C@@H](N)CCC(N)=O)[C@@H](C)CC)[C@@H](C)O)[C@@H](C)CC)C(C)C)C(=O)N[C@@H](CCSC)C(=O)N[C@H](C(=O)N[C@@H](CCCCN)C(=O)O)C(C)C` ?
OUT: 0.0027
